Record form. Attribute: inhibition. Fill in for each entry.
Target: Transforming acidic coiled-coil-containing protein 3 (Homo sapiens) (UniProt Q9Y6A5)
Test: inhibitors of ARNT PAS-B binding to TACC3 – biochemical, AlphaScreen, single concentration, primary screen (AID 623870);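 note: 0% = complete ARNT plus TACC3 wells and 100% = ARNT alone without TACC3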
Conditions: AlphaScreen His-ARNT PAS-B/GST-TACC3 binding, luminescence; at 9.99 µM; hits give high values; TACC3 fragment carries E629A point mutation
The campaign covered roughly 390,000 compounds. About 2,600 (0.67%) were called active. The sample holds actives, similar compounds and a random draw of the others, so the mix is not that of the screen.
Your answer should be a plain number; it is taken to be in %.

Query string: // lookup inhibition for C#CCOCCOCCOCCNc1nc(N2CCN(C(=O)C([C@@H](C)O)n3cc([C@@H](N)CCCCN)nn3)CC2)nc(N2CCN(C(=O)[C@H](CCCCN)n3cc(CN)nn3)CC2)n1 (stereo partly specified)
Result string: 21.2

Query string: Data request, read-out inhibition, for "C[C@@H]1CN([C@@H](C)CO)C(=O)c2cccc(NC(=O)c3nc4ccccc4s3)c2O[C@@H]1CN(C)Cc1ccc(Cl)c(Cl)c1"
Result string: -2.22

Query string: What value of inhibition has been recorded for this entry: "Cc1c(NC(=O)C(=O)N/N=C/c2cccs2)c(=O)n(-c2ccccc2)n1C"
Result string: 4.89

Query string: Please report the recorded inhibition for "C[C@H]1CN([C@@H](C)CO)C(=O)c2c(c3ccccc3n2C)-c2ccccc2CO[C@H]1CN(C)S(=O)(=O)c1ccc(C#N)cc1" .
Result string: 11.3

Query string: What value of measured inhibition is listed for COC(=O)CCCCCCC(=O)Nc1ccc(C2OC(CSc3nc(-c4ccccc4)c(-c4ccccc4)o3)CC(c3ccc([N+](=O)[O-])cc3)O2)cc1 (stereo unspecified) ?
Result string: 1.18

Query string: Give its inhibition value. Item: CCC(C)[C@@H](C(=O)N1CCNCC1)n1cc(CCCCN)nn1 (stereo partly specified)
Result string: 7.8

Query string: Sample "CCCN(C)C[C@@H]1Oc2cc(C#CCc3ccccc3)ccc2S(=O)(=O)N([C@H](C)CO)C[C@@H]1C" — what was its inhibition?
Result string: 1.97

Query string: // inhibition lookup, key: "COC(=O)[C@@H]1[C@@H](CO)[C@@H]2Cn3c(ccc(C4=CCCC4)c3=O)[C@@H]2N1Cc1cncnc1"
Result string: -4.04

Query string: Requested read-out: inhibition. Entry: "OCCn1c(-c2ccccc2)csc1=Nc1ccccc1"
Result string: 51

Query string: Which measured inhibition value corresponds to "C[C@H]1CN([C@@H](C)CO)C(=O)c2cc(-c3ccccc3F)cnc2O[C@@H]1CN(C)C" ?
Result string: 6.21

Query string: May I ask what inhibition has been recorded for "O=C(NCC[C@@H]1CC[C@H](NC(=O)Nc2cc(F)ccc2F)[C@@H](CO)O1)Nc1ccc(Cl)cc1" ?
Result string: -4.66

Query string: Request the reported inhibition associated with C#CCOCCOCCOCCNc1nc(N2CCN(C(=O)[C@H](CCCCN)n3cc([C@@H](N)C(C)CC)nn3)CC2)nc(N2CCN(C(=O)[C@H](Cc3ccc(O)cc3)n3cc([C@@H](N)C(C)CC)nn3)CC2)n1 (stereo partly specified)
Result string: 45.7

Query string: If you can, please state the reported inhibition value of "COc1ccc(-c2ccc3c(c2)[C@H]2[C@H](CCN2S(=O)(=O)c2ccccc2F)[C@H](CO)N3)cc1" .
Result string: -0.779

Query string: Which inhibition value belongs to "O=C(C[C@@H]1CC[C@@H]2[C@H](COC[C@@H](O)CN2Cc2ccc(F)cc2)O1)NCc1ccncn1" ?
Result string: -1.34

Query string: What does the record list as inhibition for C=CCOc1ccc(/C=N/NC(=O)C(C)Sc2ccccn2)cc1OCC (stereo unspecified) ?
Result string: 14.2

Query string: Requested field: inhibition. Item: "C[C@H]1CN([C@@H](C)CO)C(=O)c2cc(C#Cc3ccccc3F)cnc2O[C@H]1CN(C)C"
Result string: -2.77

----------
Target: Transforming acidic coiled-coil-containing protein 3 (Homo sapiens) (UniProt Q9Y6A5)
Assay: inhibitors of ARNT PAS-B binding to TACC3 – biochemical, AlphaScreen, single concentration, primary screen (AID 623870);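 note: 0% = complete ARNT plus TACC3 wells and 100% = ARNT alone without TACC3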
Conditions: AlphaScreen His-ARNT PAS-B/GST-TACC3 binding, luminescence; at 9.99 µM; hits give high values; TACC3 fragment carries E629A point mutation
Out of some 390,000 compounds screened, about 2,600 (0.67%) were called active. The entries come from a sample that favours actives as a whole.
For each of the compounds below, state its inhibition.
Your answer should be a plain number; it is taken to be in %.

Query string: Would you mind telling me what inhibition value was observed for "C/C(=N\NC(=O)Cc1ccc(Cl)cc1)c1ccccn1" ?
Result string: 28.6

Query string: If you can, please state the reported inhibition value of "C/C(=N/NC(=O)CSc1ccccn1)c1ccc([N+](=O)[O-])cc1" .
Result string: -1.61

Query string: What measured inhibition goes with "C[C@@H]1CN([C@@H](C)CO)C(=O)Cc2cc(NC(=O)Nc3ccc(F)cc3)ccc2O[C@@H]1CN(C)S(=O)(=O)c1ccccc1" ?
Result string: 2.95

Query string: Returns the measured inhibition for the input compound. Input: "CCC(=O)N(C)C[C@H]1Oc2cc(-c3ccccc3F)ccc2S(=O)(=O)N([C@H](C)CO)C[C@@H]1C"
Result string: -1.89

Query string: Request the reported inhibition associated with "C/C(Cc1ccccc1)=N\NC(=O)CNC(=O)c1ccccc1Cl"
Result string: 4.6

----------
Target: Transforming acidic coiled-coil-containing protein 3 (Homo sapiens) (UniProt Q9Y6A5)
Assay: inhibitors of ARNT PAS-B binding to TACC3 – biochemical, AlphaScreen, single concentration, primary screen (AID 623870);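 note: 0% = complete ARNT plus TACC3 wells and 100% = ARNT alone without TACC3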
Conditions: AlphaScreen His-ARNT PAS-B/GST-TACC3 binding, luminescence; at 9.99 µM; hits give high values; TACC3 fragment carries E629A point mutation
Among all 390,000 compounds or so, about 2,600 (0.67%) were called active. For the sample, actives were picked, then their nearest neighbours and some compounds at random.
PROPERTY NAME: inhibition (%)
Respond numerically; units are % and should not be typed.

Query string: Consider the compound shown here: "O=C(Nc1nncs1)c1cccc(S(=O)(=O)N2CCCCC2)c1" What is its recorded inhibition?
Result string: -5.27

Query string: Name the recorded inhibition for "CNC[C@H]1OCCCC[C@H](C)Oc2ccc(NS(C)(=O)=O)cc2C(=O)N([C@@H](C)CO)C[C@H]1C" .
Result string: -0.797

Query string: GET /values?readout=inhibition&item= "CO[C@H]1O[C@H](CO)[C@@H](OC(=O)Nc2ccccc2-c2ccccc2)[C@H](OC(=O)Nc2ccccc2)[C@H]1OC(=O)Nc1ccccc1"
Result string: 0.749

Query string: Value lookup for inhibition; key = "CCc1nnc(NC(=O)CCN(c2ccc(C)cc2)S(=O)(=O)c2ccccc2)s1"
Result string: 2

Query string: For the compound shown here, Cc1cc(C)nc(N2C(=O)CC(Cc3ccccc3)C2=O)n1 (stereo unspecified) , give the reported inhibition.
Result string: -0.771

Query string: Form field: reported inhibition of "O=C(NNC1=NCCC1)c1cccc(S(=O)(=O)N2CCCCC2)c1"
Result string: 30.6

Query string: Consider the compound shown here: "COc1ccccc1NC(=O)N[C@H]1CC[C@H](CCNC(=O)Cc2ccccn2)O[C@@H]1CO" What is its recorded inhibition?
Result string: 6.44

Query string: Sample "C[C@H](CO)N1C[C@H](C)[C@H](CN(C)C(=O)C2CCOCC2)Oc2ncc(-c3ccccc3)cc2C1=O" — what was its inhibition?
Result string: -4.96

Query string: Which measured inhibition value corresponds to "CCc1nnc(NS(=O)(=O)c2ccc(N=Cc3c(C)[nH]n(-c4ccc(C)cc4)c3=O)cc2)s1" ?
Result string: 45.6

Query string: Record request: inhibition value, item "C[C@@H]1CN([C@@H](C)CO)C(=O)c2cc(-c3cccc(F)c3)cnc2O[C@@H]1CN(C)Cc1ccccc1"
Result string: 1.97

Query string: Would you mind telling me what inhibition value was observed for "C[C@H]1CN([C@@H](C)CO)C(=O)c2cc(NC(=O)NC3CCCCC3)ccc2O[C@@H]1CN(C)C(=O)Nc1cccc2ccccc12" ?
Result string: 0.153

Query string: What value of inhibition has been reported for the following compound? "c1ccc(-c2cn3c(n2)CCc2ccc4cccnc4c2-3)cc1"
Result string: 64.1

Query string: Find the recorded inhibition belonging to "O=C(C[C@H]1C[C@H]2c3cc(NC(=O)Nc4ccccc4F)ccc3O[C@H]2[C@H](CO)O1)NCc1ccccn1" and report it.
Result string: -10.9

Query string: So what does the record say about inhibition for "Cn1c(=NC(=O)c2cnccn2)sc2ccccc21" ?
Result string: 50.2

Query string: Which inhibition value belongs to "Cc1ccccc1N1CCN(C(=O)c2cccnc2)CC1" ?
Result string: -7.09

Query string: For the compound "O=C(C[C@@H]1C=C[C@@H](NC(=O)c2ccccc2)[C@H](CO)O1)NCCc1ccncc1" , what inhibition is on record?
Result string: -9.84

Query string: I would be grateful if you could share the reported inhibition for "C[C@H](CO)N1C[C@H](C)[C@@H](CN(C)C(=O)C2CCCCC2)Oc2cc(C3=CCCC3)ccc2S1(=O)=O" .
Result string: 5.91

Query string: What inhibition value was documented for this compound, "COc1ccc(Nc2ncc(C(=O)N3CCN(c4ccccc4OC)CC3)c3ccccc23)cc1" ?
Result string: 1.33

Query string: What does the data say about its inhibition? Entry: "C[C@H]1CN([C@@H](C)CO)C(=O)c2cc(NC(=O)Nc3ccc4c(c3)OCO4)ccc2O[C@@H]1CN(C)Cc1ccc(Oc2ccccc2)cc1"
Result string: 28.7

Query string: Which inhibition is listed for "CCCC#Cc1ccc2c(c1)O[C@@H](CN(C)S(=O)(=O)c1cccc(OC)c1)[C@H](C)CN([C@@H](C)CO)S2(=O)=O" ?
Result string: 4.74

Query string: Using the record for "O=C(Nc1cc(F)ccc1F)N1C[C@H]2[C@@H](c3ccccc31)[C@@H](CO)N2CC1CCCC1" , report its inhibition.
Result string: -1.12

Query string: Need inhibition, item "CCN(/N=C/c1ccccc1)c1cc(=O)n(C)c(=O)[nH]1"
Result string: 6.16

Query string: So what does the record say about inhibition for Cc1ccc(CC2CC(=O)N(c3nc(C)cc(C)n3)C2=O)cc1 (stereo unspecified) ?
Result string: -8.57

Query string: What does the data say about its inhibition? Entry: "O=C(Nn1cc(C(=O)N2CCN(c3ccccc3F)CC2)c2ccccc2c1=O)c1cnccn1"
Result string: 68.5

Query string: Quick one: inhibition for "C[C@@H]1CN([C@H](C)CO)C(=O)c2ccccc2-c2ccccc2CO[C@@H]1CN(C)S(=O)(=O)CC(F)(F)F" ?
Result string: -0.141

Query string: What does the record list as inhibition for "Cn1c(=NC(=O)c2ccco2)sc2cccc(F)c21" ?
Result string: -2.41

Query string: For the compound Cc1cccc(NC(=S)N(CCN(C)C)C(C)c2ccco2)c1 (stereo unspecified) , what inhibition is on record?
Result string: -28.1

Query string: Given the entry "CC(C)NC(=O)Nc1cccc2c1O[C@H](CN(C)S(=O)(=O)c1ccccc1)[C@@H](C)CN([C@@H](C)CO)C2=O" , report its measured inhibition.
Result string: -11.5

Query string: Tell me the measured inhibition of "CN(C)C(=O)[C@@H]1[C@@H](CO)[C@@H]2Cn3c(cccc3=O)[C@H]1N2CC1CCCCC1" , please.
Result string: 10.9

Query string: Given the entry "Cc1ncc(CO)c(/C=N/NC(=O)c2cccc(S(=O)(=O)N3CCCC3)c2)c1O" , report its measured inhibition.
Result string: 75.9

Query string: // returns reported inhibition for input "O=C(C[C@@H]1C[C@@H]2c3cc(NC(=O)CC4CC4)ccc3O[C@@H]2[C@@H](CO)O1)NCCN1CCCCC1"
Result string: -1.06

Query string: Please report the recorded inhibition for "COc1ccccc1Nc1nc(N)nc(CN(C)C2CCCCC2)n1" .
Result string: 54

Query string: Could you tell me which inhibition is on file for "O=C(Nc1cc(F)ccc1F)N1CCCCN2[C@H](C1)[C@H](c1ccc(-c3cccnc3)cc1)[C@@H]2CO" ?
Result string: -4.21

Query string: // query inhibition value for entry "CN1C(=O)c2cc(NC(=O)c3cnccn3)ccc2OC[C@@H]2O[C@H](CC(=O)NC3CCC3)CC[C@@H]21"
Result string: -9.79

Query string: Dear colleague, I am looking for the recorded inhibition of the following compound: "C[C@H]1CN([C@@H](C)CO)C(=O)c2cc(C3=CCCC3)cnc2O[C@@H]1CN(C)C(=O)c1ccccc1"
Result string: -1.02

Query string: # input compound: CC(c1ccccn1)N(CCN(C)C)C(=S)Nc1ccccc1F (stereo unspecified) ; wanted: its inhibition
Result string: 56.1
